- test.system: KRAS G12C (Homo sapiens, UniProt P01116+P62937, G12C)
- Sequence (P01116 1-169 isoform P01116-2 G12C, one chain of several): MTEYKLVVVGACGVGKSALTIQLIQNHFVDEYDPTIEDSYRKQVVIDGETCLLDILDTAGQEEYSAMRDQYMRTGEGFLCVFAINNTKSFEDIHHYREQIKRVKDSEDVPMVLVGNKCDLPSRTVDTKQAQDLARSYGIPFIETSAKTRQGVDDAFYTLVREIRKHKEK
- experimental.details: Disruption of BRAF RBD interaction with Ras (FRET / MOA assay, with Cyclophilin A)
- Format: biochemical
- experimental.parameters: KRAS G12C FRET data, IC50
pIC50: −log10 of the molar value.
Overview of reported pIC50 across a group of compounds:

Sample records with pIC50:
• CCn1c(-c2cccnc2[C@H](C)OC)c2c3cc(ccc31)-c1csc(n1)C[C@H](NC(=O)[C@H](C(C)C)N(C)C(=O)N1CCC[C@@H](N(C)C)CC1)C(=O)N1CCC[C@H](N1)C(=O)OCC(C)(C)C2 = 7.00 to 8.00
• CCn1c(-c2cnccc2COC)c2c3cc(ccc31)-c1cc(O)cc(c1)C[C@H](NC(=O)[C@H](C(C)C)N(C)C(=O)[C@H]1CCN(C=O)C1)C(=O)N1CCC[C@H](N1)C(=O)OCC(C)(C)C2 = 7.00 to 8.00

Now for a further compound.
Q) // lookup pIC50 | system=KRAS G12C (Homo sapiens, UniProt P01116+P62937, G12C) | key= "CCN1C[C@@H](C(=O)N(C)[C@H](C(=O)N[C@H]2Cc3cc(O)cc(c3)-c3ccc4c(c3)c(c(-c3cnccc3COC)n4CC)CC(C)(C)COC(=O)[C@@H]3CCCN(N3)C2=O)C(C)C)CC1=O"
A) 7.00 to 8.00

----------
- test.system: NRAS Q61K (Homo sapiens, UniProt P01111+P62937, Q61K)
- Sequence (P01111 whole entry Q61K): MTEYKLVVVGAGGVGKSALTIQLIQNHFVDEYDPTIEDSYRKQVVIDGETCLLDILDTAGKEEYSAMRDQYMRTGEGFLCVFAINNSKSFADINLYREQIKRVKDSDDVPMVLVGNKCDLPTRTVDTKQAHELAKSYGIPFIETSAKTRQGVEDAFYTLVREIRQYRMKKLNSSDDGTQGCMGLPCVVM
- Sequence (P62937 whole entry): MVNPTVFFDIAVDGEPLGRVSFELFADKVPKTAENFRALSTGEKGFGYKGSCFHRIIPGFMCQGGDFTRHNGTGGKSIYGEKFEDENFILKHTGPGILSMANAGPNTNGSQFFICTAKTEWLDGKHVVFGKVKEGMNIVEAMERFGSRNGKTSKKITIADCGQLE
- experimental.details: Ras-Raf disruption / FRET / MOA assay (BRAF RBD)
- Format: biochemical
- experimental.parameters: NRAS Q61K; read-out: NRAS Q61K FRET data IC50
pIC50: −log10 of the molar value.
readout: pIC50

Q) Please report the recorded pIC50 for "CCn1c(-c2cccnc2[C@H](C)OC)c2c3cc(ccc31)-c1cc(cc(C(F)F)c1)C[C@H](NC(=O)[C@H](C1CCCC1)N1CC[C@]3(CCN(C(=O)[C@@H]4N[C@@H]4C4CC4)C3)C1)C(=O)N1CCC[C@H](N1)C(=O)OCC(C)(C)C2" .
A) 5.00 to 6.00

Q) So what's the measured pIC50 for this one? "CCn1c(-c2cccnc2[C@H](C)OC)c2c3cc(ccc31)-c1cc(O)cc(c1)C[C@H](NC(=O)[C@@H](COC1CN(C(=O)[C@H]3CN3)C1)C(C)C)C(=O)N1CCC[C@H](N1)C(=O)OCC(C)(C)C2"
A) 5.00 to 6.00

Q) Given CCn1c(-c2cccnc2[C@H](C)OC)c2c3cc(ccc31)-c1csc(n1)C[C@H](NC(=O)[C@H](C(C)C)N(C)C(=O)N(C)CC1CN(C(=O)[C@H]3CN3)C1)C(=O)N1CCC[C@H](N1)C(=O)OCC(C)(C)C2 (atropisomer, axis not shown) , state its recorded pIC50.
A) 7.00 to 8.00

Q) State the recorded pIC50 for this entry: CCn1c(-c2cccnc2[C@H](C)OC)c2c3cc(ccc31)-c1cc(O)cc(c1)C[C@H](NC(=O)[C@H](C(C)C)N(C)C(=O)N1C[C@@H]3[C@H]1CCN3C(=O)[C@H]1CN1)C(=O)N1CCC[C@H](N1)C(=O)OCC(C)(C)C2 (atropisomer, axis not shown)
A) 5.00 to 6.00

Q) Query (molecule): CCn1c(-c2cccnc2[C@H](C)OC)c2c3cc(ccc31)-c1csc(n1)C[C@H](NC(=O)[C@H](C(C)C)N(C)C(=O)N(C)CC1CN(C(=O)[C@@H]3CN3)C1)C(=O)N1CCC[C@H](N1)C(=O)OCC(C)(C)C2 (atropisomer, axis not shown) ; field requested: pIC50
A) 7.00 to 8.00

Q) For the molecule CCn1c(-c2cccnc2[C@H](C)OC)c2c3cc(ccc31)-c1cc(O)cc(c1)C[C@H](NC(=O)[C@H](C(C)C)N(C)C(=O)[C@H]1CCN(C(=O)C3(C)CO3)C1)C(=O)N1CCC[C@H](N1)C(=O)OCC(C)(C)C2 (stereo partly drawn) , what pIC50 is on record?
A) 6.00 to 7.00

Q) Return reported pIC50; argument: CCn1c(-c2cccnc2[C@H](C)OC)c2c3cc(ccc31)-c1cc(O)cc(c1)C[C@H](NC(=O)[C@H](C(C)C)N(C)C(=O)[C@@H]1CCN(C(=O)[C@@H]3CN3)[C@@H]1C)C(=O)N1CCC[C@H](N1)C(=O)OCC(C)(C)C2 (atropisomer, axis not shown)
A) 6.00 to 7.00

Q) Given the molecule CCn1c(-c2cccnc2[C@H](C)OC)c2c3cc(ccc31)-c1cc(O)cc(c1)C[C@H](NC(=O)[C@H](C(C)C)N(C)C(=O)CN(C)S(=O)(=O)[C@@H]1CN1C)C(=O)N1CCC[C@H](N1)C(=O)OCC(C)(C)C2 (single isomer, unassigned) , what is its reported pIC50?
A) 6.00 to 7.00

----------
- test.system: KRAS G12C (Homo sapiens, UniProt P01116+P62937, G12C)
- experimental.details: Disruption of BRAF RBD interaction with Ras (FRET / MOA assay, with Cyclophilin A)
- Assay type: biochemical
- experimental.parameters: KRAS G12C; read-out: KRAS G12C FRET data IC50
pIC50: −log10 of the molar value.
Recorded pIC50, one value per entry.

Q) Recorded pIC50 for "CCn1c(-c2ccccc2CCOC)c2c3cc(ccc31)-c1cc(O)cc(c1)C[C@H](NC(=O)[C@H](C(C)C)N(C)C(=O)C1CCN(C(=O)/C=C/CN(C)C)CC1)C(=O)N1CCC[C@H](N1)C(=O)OCC(C)(C)C2" , please?
A) 6.00 to 7.00

----------
- test.system: KRAS WT (Homo sapiens, UniProt P01116+P62937)
- Sequence (P01116 1-169 isoform P01116-2 limits assumed, one chain of several): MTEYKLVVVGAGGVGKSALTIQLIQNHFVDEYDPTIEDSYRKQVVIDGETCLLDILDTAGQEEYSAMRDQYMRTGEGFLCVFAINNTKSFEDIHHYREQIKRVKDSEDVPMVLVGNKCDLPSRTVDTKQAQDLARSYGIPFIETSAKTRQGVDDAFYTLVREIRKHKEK
- experimental.details: Disruption of BRAF RBD interaction with Ras (FRET / MOA assay, with Cyclophilin A)
- Format: biochemical
- experimental.parameters: KRAS WT; read-out: KRAS WT FRET data IC50
readout: IC50

Past entries and their recorded results:
- CCn1c(-c2cccnc2[C@H](C)OC)c2c3cc(ccc31)-c1cccc(c1)C[C@H](NC(=O)[C@@H](COC1CN(C(=O)C#C[C@@H]3COCCN3C)C1)C(C)C)C(=O)N1CCC[C@H](N1)C(=O)OCC(C)(C)C2 (atropisomer, axis not shown): 1 to 10 µM
- C=CC(=O)N1CC[C@H](C(=O)N(C)[C@H](C(=O)N[C@H]2Cc3cc(O)cc(c3)-c3ccc4c(c3)c(c(-c3cncc(CCN(C)C)c3)n4CC)CC(C)(C)COC(=O)[C@@H]3CCCN(N3)C2=O)C(C)C)C1: 1 to 10 µM
- CC#C[S+]([O-])N1CC[C@H](C(=O)N(C)[C@H](C(=O)N[C@H]2Cc3cccc(c3)-c3ccc4c(c3)c(c(-c3cccnc3[C@H](C)OC)n4CC)CC(C)(C)COC(=O)[C@@H]3CCCN(N3)C2=O)C2CCCC2)C1 (stereo partly shown): 1 to 10 µM

Continue with the next compound.
Q) Need IC50 of "CCn1c(-c2cccnc2[C@H](C)OC)c2c3cc(ccc31)-c1csc(n1)C[C@H](NC(=O)[C@H](C(C)C)N(C)C(=O)N1CCCC13CCN(C)CC3)C(=O)N1CCC[C@H](N1)C(=O)OCC(C)(C)C2" , thanks.
A) 0.01 to 0.1 µM

----------
Property: IC50; scope: individual molecules
- test.system: NRAS G12C (Homo sapiens, UniProt P01111+P62937, G12C)
- Sequence (P01111 whole entry G12C, one chain of several): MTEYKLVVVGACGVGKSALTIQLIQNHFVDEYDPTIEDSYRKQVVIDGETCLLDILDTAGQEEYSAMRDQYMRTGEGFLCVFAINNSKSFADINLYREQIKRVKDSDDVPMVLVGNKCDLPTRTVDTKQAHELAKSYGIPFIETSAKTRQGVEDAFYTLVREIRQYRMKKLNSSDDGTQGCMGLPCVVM
- experimental.details: Disruption of BRAF RBD interaction with Ras (FRET / MOA assay, with Cyclophilin A)
- Assay type: biochemical
- experimental.parameters: NRAS G12C; read-out: NRAS G12C FRET data IC50

Some molecules with recorded IC50:
- CCn1c(-c2cccnc2[C@H](C)OC)c2c3cc(ccc31)-c1cc(O)cc(c1)C[C@H](NC(=O)[C@H](C(C)C)N(C)C(=O)C1CN(C)C1)C(=O)N1CCC[C@H](N1)C(=O)OCC(C)(C)C2 (atropisomer, axis not shown) [Example A124]: 100 to 1000 nM
- CCn1c(-c2cccnc2[C@H](C)OC)c2c3cc(ccc31)-c1csc(n1)C[C@H](NC(=O)[C@H](C(C)C)N(C)C(=O)N1C[C@H](C)N(C)C[C@@H]1C)C(=O)N1CCC[C@H](N1)C(=O)OCC(C)(C)C2 [Example A283]: 100 to 1000 nM
- CCn1c(-c2cnccc2COC)c2c3cc(ccc31)-c1cc(O)cc(c1)C[C@H](NC(=O)[C@H](C(C)C)N(C)C(=O)OC1CN(C)C1)C(=O)N1CCC[C@H](N1)C(=O)OCC(C)(C)C2 [Example A101]: 100 to 1000 nM

Turning now to a further record.
Q) # lookup: IC50 of CCn1c(-c2cccnc2[C@H](C)OC)c2c3cc(ccc31)-c1csc(n1)C[C@H](NC(=O)C1(F)COC1)C(=O)N1CCC[C@H](N1)C(=O)OCC(C)(C)C2 [Example A320]
A) 100 to 1000 nM
